test: Half life in mouse liver microsomes pretreated for 5 mins followed by incubation with NADP for 30 secs and measured upto 45 mins by LC-MS/MS analysis; assay type: ADME, Microsome; settings: time 3030 sec
Reported half-life values follow for various compounds

{"COMPOUND": "O=C(N[C@H]1CC[C@H](N[C@H](CO)C(F)(F)F)CC1)c1cnc2cc(C3CC3)ncc2c1", "PROPERTY": "half-life", "OBSERVED_RESULT": "> 3 h"}
{"COMPOUND": "CC(C)(O)[C@H]1CC[C@H](NC(=O)c2cnc3nc(C4CC4)ccc3c2)CC1", "PROPERTY": "half-life", "OBSERVED_RESULT": "> 3 h"}
{"COMPOUND": "CC(C)(O)[C@H]1CC[C@H](NC(=O)c2cnc3nc(N4CCC4)ncc3c2)CC1", "PROPERTY": "half-life", "OBSERVED_RESULT": "2.43 h"}
{"COMPOUND": "C[C@H]1CCN1c1cc2ncc(C(=O)N[C@H]3CCNC3=O)cc2cn1", "PROPERTY": "half-life", "OBSERVED_RESULT": "> 3 h"}
{"COMPOUND": "CC(C)(O)[C@H]1C[C@H](NC(=O)c2cnc3nc(C4CC4)c(Cl)cc3c2)C1", "PROPERTY": "half-life", "OBSERVED_RESULT": "> 3 h"}

Query string: I have this compound here, CC(C)(O)C1CC2(CC(NC(=O)c3cnc4nc(C5CC5)ccc4c3)C2)C1 (stereo unspecified) , and I need its recorded half-life.
Result string: > 3 h
